Entry source: patent US10017527B2

# Test System: PlasmaKLK (human plasma) (Homo sapiens, UniProt P03952)
# Construct: purchased Sigma-Aldrich; host or cells: human plasma
# Sequence (P03952 391-638 limits assumed): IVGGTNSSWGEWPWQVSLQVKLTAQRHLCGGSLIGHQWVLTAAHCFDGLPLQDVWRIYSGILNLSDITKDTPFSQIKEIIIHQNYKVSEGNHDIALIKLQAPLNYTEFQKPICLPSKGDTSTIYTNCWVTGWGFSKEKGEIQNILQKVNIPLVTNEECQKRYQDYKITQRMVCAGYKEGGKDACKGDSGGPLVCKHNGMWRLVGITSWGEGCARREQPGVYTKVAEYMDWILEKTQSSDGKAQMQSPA
# Sequence (P03952 20-390 partner limits assumed): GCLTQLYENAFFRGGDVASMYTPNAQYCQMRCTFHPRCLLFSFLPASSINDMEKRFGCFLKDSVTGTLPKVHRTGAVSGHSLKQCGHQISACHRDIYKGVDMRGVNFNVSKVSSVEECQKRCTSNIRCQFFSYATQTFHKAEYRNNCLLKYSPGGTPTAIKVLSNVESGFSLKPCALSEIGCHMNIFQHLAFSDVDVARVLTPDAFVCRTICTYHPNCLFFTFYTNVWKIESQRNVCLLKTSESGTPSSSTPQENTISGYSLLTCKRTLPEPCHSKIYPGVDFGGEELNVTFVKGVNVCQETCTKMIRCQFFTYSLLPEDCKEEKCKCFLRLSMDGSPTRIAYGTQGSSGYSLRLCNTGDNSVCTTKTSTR
# Assay Overview: Plasma kallikrein inhibition, chromogenic substrate Biophen CS-31(02)
# Format: biochemical
# Cond: Plasma KLK; Tris buffer pH 7.8; read-out: IC50 pKLK
pIC50: −log10 of the molar value.
Quantity Kind: pIC50

| Compound | Assay Value |
| --- | --- |
| N=C(N)Nc1ccc(C(NC(=O)OCCOc2ccccc2)P(=O)(Oc2ccccc2)Oc2ccccc2)cc1.O=C(O)C(F)(F)F (stereo not drawn) [Compound 30, 2,2,2-trifluoroacetate] | < 3.60 |
| C#CCOCCOCCOC(=O)NC(Cc1ccc(NC(=N)N)cc1)P(=O)(Oc1ccccc1)Oc1ccccc1 (stereo not drawn) [UPA2, reference compound] | 3.60 to 5.00 |
| N=C(N)Nc1ccc(C(NC(=O)OCCOCCOCc2cn(CCOCCOCCOCCNC(=O)CCCC[C@H]3SC[C@H]4NC(=O)N[C@H]43)nn2)P(=O)(Oc2ccccc2)Oc2ccccc2)cc1 (stereo partly drawn) | 3.60 to 5.00 |
| COCCOCCOC(=O)NC(c1ccc(NC(=N)N)cc1)P(=O)(Oc1ccccc1)Oc1ccccc1.O=C(O)C(F)(F)F (stereo not drawn) [Compound 28, 2,2,2-trifluoroacetate] | 3.60 to 5.00 |
| CCN(CC)c1ccc2c(-c3ccccc3C(=O)N3CCN(C(=O)CCCCCCCn4cc(COCCOCCOC(=O)NC(c5ccc(NC(=N)N)cc5)P(=O)(Oc5ccccc5)Oc5ccccc5)nn4)CC3)c3ccc(=[N+](CC)CC)cc-3oc2c1 (stereo not drawn) | 3.60 to 5.00 |

Proceeding to the next compound to report its pIC50.
Prompt: Look up and report measured pIC50 for this entry: N=C(N)Nc1ccc(C(NS(=O)(=O)c2ccccc2)P(=O)(Oc2ccccc2)Oc2ccccc2)cc1 (stereo not drawn)
Response: 5.00 to 5.60

###

Each entry below carries its reported IC50.
# Test System: KLK2 (human) (Homo sapiens)
# Construct: purchased Viktor Magdolen, TUMunich (TUM), supplied by an academic laboratory
# Sequence (P20151 25-261): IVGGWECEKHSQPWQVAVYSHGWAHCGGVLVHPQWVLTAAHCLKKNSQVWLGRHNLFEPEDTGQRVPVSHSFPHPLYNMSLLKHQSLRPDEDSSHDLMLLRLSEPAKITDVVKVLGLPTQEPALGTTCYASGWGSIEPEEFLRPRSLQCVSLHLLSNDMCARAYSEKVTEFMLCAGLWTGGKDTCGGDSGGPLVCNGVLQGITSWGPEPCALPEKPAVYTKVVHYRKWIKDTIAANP
# Assay Overview: KLK2 inhibition, fluorogenic substrate H-Pro-Phe-Arg-AMC
# Format: biochemical

| Molecule | IC50 |
| --- | --- |
| CSCCOC(=O)NC(c1ccc(NC(=N)N)cc1)P(=O)(Oc1ccccc1)Oc1ccccc1 (stereo not drawn) | 0.1 to 1 µM |
| CCCCCCOC(=O)NC(c1ccc(NC(=N)N)cc1)P(=O)(Oc1ccccc1)Oc1ccccc1 (stereo not drawn) | 0.1 to 1 µM |

Prompt: Tell me its IC50 on KLK2 (human) (Homo sapiens): COCCOCCOC(=O)NC(c1ccc(NC(=N)N)cc1)P(=O)(Oc1ccc(NC(C)=O)cc1)Oc1ccc(NC(C)=O)cc1 (stereo not drawn)
Response: 0.1 to 1 µM

Prompt: Tell me its IC50 on KLK2 (human) (Homo sapiens): C#CCOCCOCCOC(=O)NC(c1ccc(NC(=N)N)cc1)P(=O)(Oc1ccccc1)Oc1ccccc1.O=C(O)C(F)(F)F (stereo not drawn) [Compound 27, 2,2,2-trifluoroacetate]
Response: 1 to 2.5 µM

Prompt: Tell me its IC50 on KLK2 (human) (Homo sapiens): N=C(N)Nc1ccc(CC(NC(=O)OCc2ccccc2)P(=O)(Oc2ccccc2)Oc2ccccc2)cc1 (stereo not drawn) [UPA1, reference compound]
Response: < 0.1 µM

Prompt: Tell me its IC50 on KLK2 (human) (Homo sapiens): COCCOC(=O)NC(c1ccc(NC(=N)N)cc1)P(=O)(Oc1ccccc1)Oc1ccccc1 (stereo not drawn) [Compound 29, 2,2,2-trifluoroacetate]
Response: 0.1 to 1 µM

###

# Test System: tPA (recombinant) (Homo sapiens)
# Construct: purchased Nodia
# Sequence (P00750 36-562, species assumed): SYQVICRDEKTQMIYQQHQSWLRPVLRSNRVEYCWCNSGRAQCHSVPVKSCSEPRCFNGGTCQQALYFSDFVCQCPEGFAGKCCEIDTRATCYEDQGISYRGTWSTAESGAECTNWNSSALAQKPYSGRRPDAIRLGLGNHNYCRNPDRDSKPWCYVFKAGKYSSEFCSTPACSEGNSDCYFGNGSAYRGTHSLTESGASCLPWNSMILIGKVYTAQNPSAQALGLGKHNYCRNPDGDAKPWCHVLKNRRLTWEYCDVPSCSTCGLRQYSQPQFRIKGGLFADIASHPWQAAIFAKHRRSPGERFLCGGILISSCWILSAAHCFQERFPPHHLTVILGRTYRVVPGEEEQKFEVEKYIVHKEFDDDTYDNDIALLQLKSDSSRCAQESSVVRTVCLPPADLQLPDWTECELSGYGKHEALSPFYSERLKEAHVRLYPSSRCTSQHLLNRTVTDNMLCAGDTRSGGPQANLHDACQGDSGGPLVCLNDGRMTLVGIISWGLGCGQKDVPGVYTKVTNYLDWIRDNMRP
# Assay Overview: tPA inhibition, chromogenic substrate Biophen CS-05(88)
# Assay type: biochemical
Quantity Kind: IC50

| Molecule | IC50 |
| --- | --- |
| C#CCOCCOCCOC(=O)NC(c1ccc(NC(=N)N)cc1)P(=O)(Oc1ccccc1)Oc1ccccc1.O=C(O)C(F)(F)F (stereo not shown) [Compound 27, 2,2,2-trifluoroacetate] | > 250 µM |
| COCCOC(=O)NC(c1ccc(NC(=N)N)cc1)P(=O)(Oc1ccccc1)Oc1ccccc1 (stereo not shown) [Compound 29, 2,2,2-trifluoroacetate] | > 250 µM |
| CCCCCC(=O)NCCOC(=O)NC(c1ccc(NC(=N)N)cc1)P(=O)(Oc1ccccc1)Oc1ccccc1 (stereo not shown) | > 250 µM |
| CCCCCCOC(=O)NC(c1ccc(NC(=N)N)cc1)P(=O)(Oc1ccccc1)Oc1ccccc1 (stereo not shown) | 2.5 to 10 µM |
| N=C(N)Nc1ccc(C(NC(=O)OCCOCCOCc2cn(CCOCCOCCOCCNC(=O)CN3CCN(CC(=O)O)CCN(CC(=O)O)CCN(CC(=O)O)CC3)nn2)P(=O)(Oc2ccccc2)Oc2ccccc2)cc1 (stereo not shown) | 2.5 to 10 µM |
| N=C(N)Nc1ccc(CC(NC(=O)OCc2ccccc2)P(=O)(Oc2ccccc2)Oc2ccccc2)cc1 (stereo not shown) [UPA1, reference compound] | 10 to 250 µM |

Proceeding to the next molecule to report its IC50.
Prompt: Look up and report measured IC50 for this entry: N=C(N)Nc1ccc(C(NC(=O)OCc2ccccc2)P(=O)(Oc2ccccc2)Oc2ccccc2)cc1 (stereo not shown) [Compound 5a, 2,2,2-trifluoroacetate, reference compound]
Response: > 250 µM

###

Each entry below carries its reported IC50.
# Test System: PlasmaKLK (human plasma) (Homo sapiens, UniProt P03952)
# Construct: purchased Sigma-Aldrich; host or cells: human plasma
# Assay Overview: Plasma kallikrein inhibition, chromogenic substrate Biophen CS-31(02)
# Assay type: biochemical

Take a look at these entries with their results.
| Compound | IC50 |
| --- | --- |
| C#CCOCCOCCOC(=O)NC(c1ccc(NC(=N)N)cc1)P(=O)(Oc1ccccc1)Oc1ccccc1.O=C(O)C(F)(F)F (stereo not drawn) [Compound 27, 2,2,2-trifluoroacetate] | 10 to 250 µM |
| CCCCCCOC(=O)NC(c1ccc(NC(=N)N)cc1)P(=O)(Oc1ccccc1)Oc1ccccc1 (stereo not drawn) | 2.5 to 10 µM |

Prompt: Look up and report measured IC50 for this entry: N=C(N)Nc1ccc(C(NC(=O)OCc2ccccc2)P(=O)(Oc2ccccc2)Oc2ccccc2)cc1 (stereo not drawn) [Compound 5a, 2,2,2-trifluoroacetate, reference compound]
Response: 2.5 to 10 µM

###

# Test System: KLK4 (Homo sapiens)
# Construct: purchased Viktor Magdolen (TUM), supplied by an academic laboratory
# Sequence (Q9Y5K2 31-254): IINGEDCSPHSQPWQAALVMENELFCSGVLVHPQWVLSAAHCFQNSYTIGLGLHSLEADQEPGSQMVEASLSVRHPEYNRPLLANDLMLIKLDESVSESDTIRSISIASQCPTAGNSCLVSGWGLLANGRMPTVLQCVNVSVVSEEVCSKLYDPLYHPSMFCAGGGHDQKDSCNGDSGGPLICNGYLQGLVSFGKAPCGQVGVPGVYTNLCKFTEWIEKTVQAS
# Assay Overview: KLK4 inactivation kinetics from progress curves (kobs vs inhibitor concentration)
# Format: biochemical
# Cond: irreversible binding to KLK4, Yes/No
Quantity Kind: Irreversible (KLK4)

Take a look at these entries with their results.
| Compound | Quantity Kind | Assay Value |
| --- | --- | --- |
| COCCOCCOCCOC(=O)NC(c1ccc(NC(=N)N)cc1)P(=O)(Oc1ccccc1)Oc1ccccc1 (stereo not drawn) [Compound 110] | Irreversible (KLK4) | Yes/ |
| N=C(N)Nc1ccc(CC(NC(=O)OCc2ccccc2)P(=O)(Oc2ccccc2)Oc2ccccc2)cc1 (stereo not drawn) [UPA1, reference compound] | Irreversible (KLK4) | No |
| C#CCOCCOCCOC(=O)NC(Cc1ccc(NC(=N)N)cc1)P(=O)(Oc1ccccc1)Oc1ccccc1 (stereo not drawn) [UPA2, reference compound] | Irreversible (KLK4) | No |
| COCCOCCOC(=O)NC(c1ccc(NC(=N)N)cc1)P(=O)(Oc1ccccc1)Oc1ccccc1.O=C(O)C(F)(F)F (stereo not drawn) [Compound 28] | Irreversible (KLK4) | Yes/ |
| N=C(N)Nc1ccc(C(NC(=O)OCCOc2ccccc2)P(=O)(Oc2ccccc2)Oc2ccccc2)cc1.O=C(O)C(F)(F)F (stereo not drawn) [Compound 30] | Irreversible (KLK4) | Yes/ |

Prompt: Look up and report measured Irreversible (KLK4) for this entry: C#CCOCCOCCOC(=O)NC(c1ccc(NC(=N)N)cc1)P(=O)(Oc1ccccc1)Oc1ccccc1.O=C(O)C(F)(F)F (stereo not drawn) [Compound 27]
Response: Yes/

###

# Test System: Thrombine (human plasma) (Homo sapiens)
# Construct: purchased Sigma-Aldrich; host or cells: human plasma
# Assay Overview: Thrombin inhibition, chromogenic substrate Biophen CS-21(66)
# Format: biochemical
# Cond: Thrombin; Tris buffer pH 8.3; read-out: IC50 THR
Quantity Kind: IC50

Take a look at these entries with their results.
| Compound | Test System | IC50 |
| --- | --- | --- |
| N=C(N)Nc1ccc(C(NS(=O)(=O)c2ccccc2)P(=O)(Oc2ccccc2)Oc2ccccc2)cc1 (centres unmarked) | Thrombine (human plasma) (Homo sapiens) | 2.5 to 10 µM |
| N=C(N)Nc1ccc(C(NC(=O)OCCOc2ccccc2)P(=O)(Oc2ccccc2)Oc2ccccc2)cc1.O=C(O)C(F)(F)F (centres unmarked) [Compound 30, 2,2,2-trifluoroacetate] | Thrombine (human plasma) (Homo sapiens) | > 250 µM |
| COCCOCCOC(=O)NC(c1ccc(NC(=N)N)cc1)P(=O)(Oc1ccccc1)Oc1ccccc1.O=C(O)C(F)(F)F (centres unmarked) [Compound 28, 2,2,2-trifluoroacetate] | Thrombine (human plasma) (Homo sapiens) | > 250 µM |

Prompt: Look up and report measured IC50 for this entry: N=C(N)Nc1ccc(C(NC(=O)OCCOCCOCc2cn(CCOCCOCCOCCNC(=O)CCCC[C@H]3SC[C@H]4NC(=O)N[C@H]43)nn2)P(=O)(Oc2ccccc2)Oc2ccccc2)cc1 (some centres unmarked)
Response: 10 to 250 µM

Prompt: Look up and report measured IC50 for this entry: CCN(CC)c1ccc2c(-c3ccccc3C(=O)N3CCN(C(=O)CCCCCCCn4cc(COCCOCCOC(=O)NC(c5ccc(NC(=N)N)cc5)P(=O)(Oc5ccccc5)Oc5ccccc5)nn4)CC3)c3ccc(=[N+](CC)CC)cc-3oc2c1 (centres unmarked)
Response: 10 to 250 µM
